Values from ChEMBL document CHEMBL5113369

# Protocol Description: Half life in Beagle dog at 10 to 40 mg/kg, po measured up to 8 hrs by LC-MS/MS analysis
# Assay type: ADME, organism-based, Canis lupus familiaris
# Condition Info: in vivo, dose 10-40 mg/kg
Observed Property: half-life

Query block: Return half-life (reported value) for this molecule: C[C@@H]1O[C@@H](O[C@@H]2[C@@H](O)[C@H](OCCc3ccc(O)c(O)c3)O[C@H](CO)[C@H]2OC(=O)/C=C/c2ccc(O)c(O)c2)[C@H](O)[C@H](O)[C@H]1O [ACETOSIDE]
Result block: 1.5 h
